System: E. coli TESEC Alr+ wild-type control
Assay: growth (OD600 after 10 h); higher = more growth (less inhibition)
Details: compound 0.1 mM; raw OD600 reference: median of DMSO wells 0.49, cell-free background 0.052
Structures can show the parent of a compound that is named as a salt.
Could you please report measured growth for the items listed next?

Query string: Report growth for CCCN(CCC)CCc1cccc2c1CC(=O)N2 [Ropinirole HCl] please.
Result string: 0.443

Query string: What about this molecule? COc1cc2nc(N(C)CCCNC(=O)C3CCCO3)nc(N)c2cc1OC (stereo not given) [Alfuzosin hydrochloride]
Result string: 0.462

Query string: What about this molecule? `COC(c1ccccc1)(c1ccccc1)[C@H](Oc1nc(C)cc(C)n1)C(=O)O`
Result string: 0.535

Query string: What about this molecule? `S=c1[nH]cnc2nc[nH]c12`
Result string: 0.234

Query string: What about this molecule? CCOc1ccccc1OC(c1ccccc1)C1CNCCO1 (stereo not given) [Reboxetine mesylate]
Result string: 0.542

Query string: What about this molecule? `O=S(=O)(O)CCS`
Result string: 0.513

Query string: What about this molecule? `CN(C)c1nc(N(C)C)nc(N(C)C)n1`
Result string: 0.618

Query string: What about this molecule? CC[N+](C)(CC)CCC[n+]1c(-c2ccccc2)c2cc(N)ccc2c2ccc(N)cc21 [Propidium iodide]
Result string: 0.0675

Query string: What about this molecule? `CC(=O)N[C@@H](CC(C)C)C(=O)O`
Result string: 0.637

Query string: What about this molecule? COc1ccc(CC2c3cc(OC)c(OC)cc3CC[N+]2(C)CCC(=O)OCCCCCOC(=O)CC[N+]2(C)CCc3cc(OC)c(OC)cc3C2Cc2ccc(OC)c(OC)c2)cc1OC (stereo not given) [Atracurium besylate]
Result string: 0.431

Query string: What about this molecule? CCN(CC)CCOC(=O)C(Cc1cccc2ccccc12)CC1CCCO1 (stereo not given) [Nafronyl oxalate]
Result string: 0.464

Query string: What about this molecule? CCCCCN(C)CCC(O)(P(=O)(O)O)P(=O)(O)O [Ibandronate sodium]
Result string: 0.462

Query string: What about this molecule? `C[C@@H](O)[C@H]1C(=O)N2C(C(=O)O)=C(S[C@@H]3CN[C@H](C(=O)N(C)C)C3)[C@H](C)[C@H]12`
Result string: 0.0604

Query string: What about this molecule? `O=C1c2ccccc2C(=O)C1c1ccccc1`
Result string: 0.488

Query string: What about this molecule? CCN(CC)CCOC(=O)C(c1ccccc1)c1ccccc1 [Adiphenine hydrochloride]
Result string: 0.494

Query string: What about this molecule? Clc1ccc(COC(Cn2ccnc2)c2ccc(Cl)cc2Cl)cc1 (stereo not given) [Econazole nitrate]
Result string: 0.056

Query string: What about this molecule? CC[C@@H]1C(=O)OC[C@@H]1Cc1cncn1C [Pilocarpine nitrate]
Result string: 0.674

Query string: What about this molecule? `CC(=O)Nc1ccc(O)cc1`
Result string: 0.559

Query string: What about this molecule? N=C(N=C(N)N)N1CCOCC1 [Moroxidine hydrochloride]
Result string: 0.454

Query string: What about this molecule? `C[C@H](CCC(=O)O)[C@H]1CC[C@H]2[C@@H]3CC[C@@H]4C[C@H](O)CC[C@]4(C)[C@H]3CC[C@]12C`
Result string: 0.386

Query string: What about this molecule? Cc1ncc([N+](=O)[O-])n1CC(C)O (stereo not given)
Result string: 0.447

Query string: What about this molecule? N=C(N)NC(=O)c1nc(Cl)c(N)nc1N [Amiloride hydrochloride dihydrate]
Result string: 0.497

Query string: What about this molecule? `O=C1NCN(c2ccccc2)C12CCN(CCCC(c1ccc(F)cc1)c1ccc(F)cc1)CC2`
Result string: 0.055

Query string: What about this molecule? `Oc1ccc(OCc2ccccc2)cc1`
Result string: 0.477

Query string: What about this molecule? `CO[C@H]1/C=C/O[C@@]2(C)Oc3c(C)c(O)c4c(O)c(c(/C=N/N5CCN(C)CC5)c(O)c4c3C2=O)NC(=O)/C(C)=C\C=C\[C@H](C)[C@H](O)[C@@H](C)[C@@H](O)[C@@H](C)[C@H](OC(C)=O)[C@@H]1C`
Result string: 0.0534

Query string: What about this molecule? CN(C)CCCSC(=N)N [Dimaprit dihydrochloride]
Result string: 0.617

Query string: What about this molecule? `CC(=O)[C@H]1CC[C@H]2[C@@H]3C=CC4=CC(=O)CC[C@@]4(C)[C@@H]3CC[C@]12C`
Result string: 0.318

Query string: What about this molecule? O=C1CCC(N2C(=O)c3ccccc3C2=O)C(=O)N1 (stereo not given) [Thalidomide]
Result string: 0.513

Query string: What about this molecule? `O=C1Nc2ccc(Cl)cc2[C@@](C#CC2CC2)(C(F)(F)F)O1`
Result string: 0.047

Query string: What about this molecule? CCCCNc1ccc(C(=O)OCCOCCOCCOCCOCCOCCOCCOCCOCCOC)cc1 [Benzonatate]
Result string: 0.444

Query string: What about this molecule? `Nc1cc(C(Cl)=C(Cl)Cl)c(S(N)(=O)=O)cc1S(N)(=O)=O`
Result string: 0.53

Query string: What about this molecule? `Cc1noc(NS(=O)(=O)c2ccc(N)cc2)c1C`
Result string: 0.588

Query string: What about this molecule? CCN(CC)CCOCCOC(=O)C1(c2ccccc2)CCCC1 [Carbetapentane citrate]
Result string: 0.539

Query string: What about this molecule? CC(C(O)c1ccc(O)cc1)N1CCC(Cc2ccccc2)CC1 (stereo not given) [Ifenprodil tartrate]
Result string: 0.453

Query string: What about this molecule? `CC#C[C@]1(O)CC[C@H]2[C@@H]3CCC4=CC(=O)CCC4=C3[C@@H](c3ccc(N(C)C)cc3)C[C@@]21C`
Result string: 0.337

----------
Could you please report measured growth for the items listed next?
System: E. coli TESEC Mtb Alr
Assay: growth (OD600 after 10 h); higher = more growth (less inhibition)
Conditions: arabinose 100000 nM; compound 0.1 mM; raw OD600 reference: median of DMSO wells 0.201, cell-free background 0.041
Structures can show the parent of a compound that is named as a salt.

Query string: Report growth for O=C1NCC2(CCN(CCc3ccccc3)CC2)O1 [Fenspiride hydrochloride] please.
Result string: 0.199

Query string: What about this molecule? CN(C)CCOC(=O)C(c1ccccc1)C1(O)CCCC1 (stereo not given) [Cyclopentolate hydrochloride]
Result string: 0.183

Query string: What about this molecule? O=C(O)COCCN1CCN(C(c2ccccc2)c2ccc(Cl)cc2)CC1 (stereo not given) [Cetirizine dihydrochloride]
Result string: 0.218

Query string: What about this molecule? `Nc1nc2n[nH]nc2c(=O)[nH]1`
Result string: 0.239

Query string: What about this molecule? `CCOC(=O)c1ccc(N)cc1`
Result string: 0.213

----------
Tested on: E. coli TESEC Mtb Alr
Assay: growth (OD600 after 10 h); higher = more growth (less inhibition)
Conditions: arabinose 100000 nM; compound 0.1 mM; raw OD600 reference: median of DMSO wells 0.201, cell-free background 0.041
Where a name gives a salt, the structure may show the parent alone.
Could you please report measured growth for the items listed next?
Reply with the value as a number alone.

Query string: Report growth for CN(C)CCCSC(=N)N [Dimaprit dihydrochloride] please.
Result string: 0.205

Query string: What about this compound? COc1cc(-c2ccc(=O)[nH]n2)ccc1OC(F)F [Zardaverine]
Result string: 0.17

Query string: What about this compound? Clc1ccc(C(Cn2ccnc2)OCc2csc3c(Cl)cccc23)c(Cl)c1 (stereo not given) [Sertaconazole nitrate]
Result string: 0.057

Query string: What about this compound? C[C@H](CCC(=O)O)[C@H]1CC[C@H]2[C@@H]3[C@H](O)C[C@@H]4C[C@H](O)CC[C@]4(C)[C@H]3CC[C@]12C [Chenodiol]
Result string: 0.278

Query string: What about this compound? CC(C)(Oc1ccc(C2CC2(Cl)Cl)cc1)C(=O)O (stereo not given) [Ciprofibrate]
Result string: 0.154

----------
Could you please report measured growth for the items listed next?
Test system: E. coli TESEC Mtb Alr
Test: growth (OD600 after 10 h); higher = more growth (less inhibition)
Details: arabinose 10000000 nM; compound 0.1 mM; raw OD600 reference: median of DMSO wells […], cell-free background 0.052
Where a name gives a salt, the structure may show the parent alone.

Query string: Report growth for O=C(NCCN1CCOCC1)c1ccc(Cl)cc1 [Moclobemide] please.
Result string: 0.338

Query string: What about this compound? CCC(=O)OCC(=O)[C@@]1(OC(=O)CC)[C@H](C)C[C@H]2[C@H]3[C@H]([C@@H](O)C[C@@]21C)[C@@]1(C)C=CC(=O)C=C1C[C@H]3Cl [Alclometasone dipropionate]
Result string: 0.241

Query string: What about this compound? Cc1ccc2c(c1)c1c3n2CCNC3CCC1 (centres undefined) [Pirlindole mesylate]
Result string: 0.351

Query string: What about this compound? Cc1cccn2c(=O)c(-c3nnn[nH]3)cnc12 [Pemirolast potassium]
Result string: 0.311
